RUN_DESCRIPTION: Pharmacokinetics following oral administration in male cynomolgus monkeys
Assay type: in vivo
DETAILS: male, cynomolgus monkey, plasma, po, 50 mg/kg, PO BID, 50 mg/kg BID, after second dose, read-out: Tmax
Description: The gavage tube was flushed with 5 mL of vehicle after administration of the dose. Plasma samples were collected at the following time points: 15 min, 30 min, 1 hr, 2 hr, 4 hr, 6 hr, 8 hr and 24 hr postdose. The concentrations of Compound 1 were determined in plasma.
MEASUREMENT_TYPE: Tmax (h)
Express your answer in h, writing the number without its unit.

Note Tmax for the compound shown: CNc1cc(Nc2cc(F)cc3c2OCCO3)nc2c(NC(=O)N[C@@H]3C[C@@H]3F)cnn12 [Compound 1, Form A] 7
